- assay system: T1, CRBN, Q96SW2;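 further: pooled lentiviral library of zinc finger degron-EGFP fusions in mCherry-positive Jurkat cells, FACS-sorted after compound exposure, with degron abundance counted by next-generation sequencing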
- T1 chain: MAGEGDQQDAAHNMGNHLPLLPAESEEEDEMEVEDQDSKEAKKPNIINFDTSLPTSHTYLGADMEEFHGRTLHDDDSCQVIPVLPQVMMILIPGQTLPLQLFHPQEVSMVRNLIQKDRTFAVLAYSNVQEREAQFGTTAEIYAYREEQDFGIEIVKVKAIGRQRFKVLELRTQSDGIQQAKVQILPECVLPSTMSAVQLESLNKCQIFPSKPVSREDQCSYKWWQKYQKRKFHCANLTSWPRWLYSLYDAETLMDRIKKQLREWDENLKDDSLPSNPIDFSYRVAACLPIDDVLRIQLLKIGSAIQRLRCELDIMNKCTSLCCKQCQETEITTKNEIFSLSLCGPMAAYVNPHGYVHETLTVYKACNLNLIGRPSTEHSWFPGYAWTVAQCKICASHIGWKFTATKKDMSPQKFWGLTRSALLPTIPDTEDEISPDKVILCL
- experiment summary: log2 fold change of degron read counts, EGFP-low vs EGFP+ sorted cells (limma voom), compound-induced degradation; higher = more compound-induced degradation of the degron-EGFP fusion; degrons are variants of IKZF1/3 zinc finger 2; compound dose not given here
- details: Jurkat; 18 h; compound: compound 22 (5-morpholino-thalidomide)
Over roughly 8,300 sequences, “log2 fold change of degron read counts, EGFP-low vs EGFP+ sorted cells (limma voom), compound-induced degradation” has its median near -1.1; the highest 2% begin near 3.2. Only a selection was taken, and the highest values are over-represented in it overall.

# input sequence, log2 fold change of degron read counts
data = [
    ("FCCPVCGAYFTQKGNLLRHIKL [46F_47C_49P_50V_52G_53A_54Y_55F_67L_, Q9UKT9]", 0.428),
    ("LVCNQCGFTCTQKGNLLRHIKL [46L_47V_49N_50Q_52G_53F_54T_55C_67L_, Q9UKT9]", -3.26),
    ("FVCEICGAGFTQKGNLLRHIKL [46F_47V_49E_50I_52G_53A_54G_55F_67L_, Q9UKT9]", 3.07),
    ("FHCPVCGASFTQKGNLLRHIKL [46F_47H_49P_50V_52G_53A_54S_55F_67L_, Q9UKT9]", 2.53),
    ("FCCPVCGAHFTQKGNLLRHIKL [46F_47C_49P_50V_52G_53A_54H_55F_67L_, Q9UKT9]", 0.752),
    ("FLCDICGAQFTQKGNLLRHIKL [46F_47L_49D_50I_52G_53A_54Q_55F_67L_, Q9UKT9]", -1.53),
    ("FFCNQCGRSFTQKGNLLRHIKL [46F_47F_49N_50Q_52G_53R_54S_55F_67L_, Q9UKT9]", -2.35),
    ("FQCDICGAQFTQKGNLLRHIKL [46F_47Q_49D_50I_52G_53A_54Q_55F_67L_, Q9UKT9]", 1.6),
    ("FECDVCGASFTQKGNLLRHIKL [46F_47E_49D_50V_52G_53A_54S_55F_67L_, Q9UKT9]", -2.77),
    ("FTCEVCGAMFTQKGNLLRHIKL [46F_47T_49E_50V_52G_53A_54M_55F_67L_, Q9UKT9]", 0.976),
    ("FKCDICGASFTQKGNLLRHIKL [46F_47K_49D_50I_52G_53A_54S_55F_67L_, Q9UKT9]", -2.66),
    ("FNCPICGAGFTQKGNLLRHIKL [46F_47N_49P_50I_52G_53A_54G_55F_67L_, Q9UKT9]", 0.718),
    ("LCCEICGFNCTQKGNLLRHIKL [46L_47C_49E_50I_52G_53F_54N_55C_67L_, Q9UKT9]", -1.02),
    ("FCCEVCGAMFTQKGNLLRHIKL [46F_47C_49E_50V_52G_53A_54M_55F_67L_, Q9UKT9]", 1.34),
    ("FFCDICGAQFTQKGNLLRHIKL [46F_47F_49D_50I_52G_53A_54Q_55F_67L_, Q9UKT9]", 3.28),
    ("FHCNICGACFTQKGNLLRHIKL [46F_47H_49N_50I_52G_53A_54C_55F_67L_, Q9UKT9]", 1.39),
    ("FYCPVCGASFTQKGNLLRHIKL [46F_47Y_49P_50V_52G_53A_54S_55F_67L_, Q9UKT9]", 3.3),
    ("FGCNQCGRIFTQKGNLLRHIKL [46F_47G_49N_50Q_52G_53R_54I_55F_67L_, Q9UKT9]", -1.65),
    ("FWCPVCGASFTQKGNLLRHIKL [46F_47W_49P_50V_52G_53A_54S_55F_67L_, Q9UKT9]", 3.48),
    ("FLCPVCGASFTQKGNLLRHIKL [46F_47L_49P_50V_52G_53A_54S_55F_67L_, Q9UKT9]", -0.0304),
    ("FYCDICGAQFTQKGNLLRHIKL [46F_47Y_49D_50I_52G_53A_54Q_55F_67L_, Q9UKT9]", 3.55),
    ("FWCDICGAQFTQKGNLLRHIKL [46F_47W_49D_50I_52G_53A_54Q_55F_67L_, Q9UKT9]", 3.68),
    ("FQCNQCGREFTQKGNLLRHIKL [46F_47Q_49N_50Q_52G_53R_54E_55F_67L_, Q9UKT9]", -3.04),
    ("FCCEICGAGFTQKGNLLRHIKL [46F_47C_49E_50I_52G_53A_54G_55F_67L_, Q9UKT9]", 2.09),
    ("FCCPVCGASFTQKGNLLRHIKL [46F_47C_49P_50V_52G_53A_54S_55F_67L_, Q9UKT9]", 2.44),
    ("FMCEICGAGFTQKGNLLRHIKL [46F_47M_49E_50I_52G_53A_54G_55F_67L_, Q9UKT9]", 1.95),
    ("FLCSVCGHLFTQKGNLLRHIKL [46F_47L_49S_50V_52G_53H_54L_55F_67L_, Q9UKT9]", -2.42),
    ("FKCEICGRDFTQKGNLLRHIKL [46F_47K_49E_50I_52G_53R_54D_55F_67L_, Q9UKT9]", -3.46),
    ("FICNQCGHNFTQKGNLLRHIKL [46F_47I_49N_50Q_52G_53H_54N_55F_67L_, Q9UKT9]", -3.24),
]
